The measurements presented in this section are drawn from patent US20100196390A1.

Below: a set of entries, each annotated with reported T1/2.
target: TrkB (Homo sapiens (Human), UniProt Q16620 32-430); assay: koff of Fab at 25 C; T1/2=Log2/koff
Sequence (Q16620 32-430 limits assumed): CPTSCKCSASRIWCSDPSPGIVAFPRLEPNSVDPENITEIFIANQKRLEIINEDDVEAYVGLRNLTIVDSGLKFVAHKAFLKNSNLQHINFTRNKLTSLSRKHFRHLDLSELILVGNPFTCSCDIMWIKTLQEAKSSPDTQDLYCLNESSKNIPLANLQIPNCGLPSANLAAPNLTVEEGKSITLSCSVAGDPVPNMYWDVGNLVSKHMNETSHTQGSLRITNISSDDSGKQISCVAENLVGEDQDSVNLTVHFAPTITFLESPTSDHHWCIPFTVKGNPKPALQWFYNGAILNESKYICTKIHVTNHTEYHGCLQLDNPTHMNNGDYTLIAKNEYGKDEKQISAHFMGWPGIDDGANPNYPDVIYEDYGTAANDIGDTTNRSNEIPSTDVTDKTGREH
I only need the number, in min, no unit after it.

10-F12 (Fab, V domains shown, Fab) VH: QVQLVQSGAEVKKPGASVKVSCKASGYTFTNYDIIWVRQAPGQGLEWMGYINPYNGRREYNEKFKGRVTMTRDTSTSTVYMELSSLRSEDTAVYYCARLLKYRRFRYYAIDYWGQGTTVTVSS VL: DIQMTQSPSSLSASVGDRVTITCRASENVYRNLAWYQQKPGKAPKLLIYAASNLQSGVPSRFSGSGSGTDFTFTISSLQPEDIATYYCQHFWGSPFTFGQGTKLEIK	5.7

Now for a further binder.
Ask: # return recorded T1/2 for entry 4B12-14 (Fab, V domains shown, Fab) VH: QVQLVQSGAEVKKPGASVKVSCKASGYTFTNYDIIWVRQAPGQGLEWMGYISPYNGRREYNEKFKGRVTMTRDTSTSTVYMELSSLRSEDTAVYYCARLLKYRRFRYYAIDYWGQGTTVTVSS VL: DIQMTQSPSSLSASVGDRVTITCRASEPVYSNVAWYQQKPGKAPKLLIYAASNLQSGVPSRFSGSGSGTDYTFTISSLQPEDIATYYCQHFWGSPFTFGQGTKLEIK
Reply: 3.2
